# TARGET: Fuc(a1-2)Gal(b1-4)GlcNAc(b1-2)Man(a1-3)[Fuc(a1-2)Gal(b1-4)GlcNAc(b1-2)Man(a1-6)]Man(b1-4)GlcNAc(b1-4)GlcNAc
# EXPERIMENTAL_PROTOCOL: glycan array binding signal (z-score within array); higher = stronger binding
# REPORTED_CONDITIONS: glycan notation: IUPAC condensed, linker removed
This excerpt belongs to a sample that is enriched for the strongest signals.
MEASUREMENT_LABEL: glycan array binding signal (z-score)

binder="SLP (Clostridium difficile), Q183M8 (protein) MATTGTQGYTVVKNDWKKAVKQLQDGLKDNSIGKITVSFNDGVVGEVAPKSANKKADRDAAAEKLYNLVNTQLDKLGDGDYVDFSVDYNLENKIITNQADAEAIVTKLNSLNEKTLIDIATKDTFGMVSKTQDSEGKNVAATKALKVKDVATFGLKSGGSEDTGYVVEMKAGAVEDKYGKVGDSTAGIAINLPSTGLEYAGKGTTIDFNKTLKVDVTGGSTPSAVAVSGFVTKDDTDLAKSGTINVRVINAKEESIDIDASSYTSAENLAKRYVFDPDEISEAYKAIVALQNDGIESNLVQLVNGKYQVIFYPEGKRLETKSLEHHHHHH" result=3.46
binder="CBM40 CPF071 (Clostridium perfringens) (protein) MAHHHHHHVGTGSNDDDDKSPDPMLSSLGEYKDINLESSNASNITYDLEKYKNLDEGTIVVRFNSKDSKIQSLLGISNSKTKNGYFNFYVTNSRVGFELRNQKNEGNTQNGTENLVHMYKDVALNDGDNTVALKIEKNKGYKLFLNGKMIKEVKDTNTKFLNNIENLDSAFIGKTNRYGQSNEYNFKGNIGFMNIYNEPLGDDYLLSKTGETK" result=-0.22
